Below, each entry is listed alongside its reported protein stability index.
B1: CAMK2A (parent)
chain: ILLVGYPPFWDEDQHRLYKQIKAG

# Variants of: B1
# Assay Protocol: protein stability index of a GFP-peptide fusion (GPS, HEK-293T) (PSI 1-6); higher = more stable;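 also: lentivirally expressed fusions sorted by FACS into six bins by GFP to DsRed ratio, PSI derived from sequencing read proportions per bin multiplied by bin number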
# Stated Conditions: c terminus: a fixed tail appended
The answer should be a number; do not append a unit.

Examples with their reported protein stability index follow.
ILLVGYPPFKDEDQHRLYKQIKAG : 1.6
ILLVGYPPFWDEDQHSLYKQIKAG : 2.5
ILLVGYPPFWDEDNHRLYKQIKAG : 2.33

Data request: What does the data say about its protein stability index? Entry: ILLVGYPPFWDEDQHRLYKQIKAT
Data returned: 2.58

Data request: Try ILLQGYPPFWDEDQHRLYKQIKAG next.
Data returned: 2.33

Data request: Please give the result for ILLVGYPPRWDEDQHRLYKQIKAG too.
Data returned: 2.83
